experiment: Concentration required to inhibit human recombinant PARP-1 was determined using cell protection assay
molecules and their reported pEC50
Worth noting: pEC50 values are minus log10 of concentrations stated in mol/L.

Examples with their reported pEC50 follow.
query.smiles: O=C(CCn1c2c(c(=O)[nH]c1=O)CSCC2)NCC(=O)N1CCN(c2ncccc2C(F)(F)F)CC1
pEC50: 7.00

query.smiles: COc1ccc(C(=O)CNC(=O)CCn2c3c(c(=O)[nH]c2=O)CSCC3)cc1
pEC50: 7.10

According to the records, this molecule O=C(CCn1c2c(c(=O)[nH]c1=O)CSCC2)NCC(=O)c1ccc(-c2ccccc2)cc1 displays pEC50 of 6.30

According to the records, this molecule O=C(CCn1c2c(c(=O)[nH]c1=O)CSCC2)NCC(=O)c1cccc(Br)c1 displays pEC50 of 5.46

According to the records, this molecule O=C(CCn1c2c(c(=O)[nH]c1=O)CSCC2)NCC(=O)c1ccc(OC(F)F)cc1 displays pEC50 of 6.70
